Conditions: buffer; pH 7.4; 200.0 µM
Decision: solubility kinetic >= 40 µg/mL yields criterion met, all other cases yield criterion not met.

Worked examples follow.
COc1cc2c(cc1OC)CN(CC(=O)NC(=O)NC1CCCCC1)CC2 : criterion met
CCOC(=O)C1CCN(C(=O)CSc2nc3ncccc3[nH]2)CC1 : criterion met
CC(C)CNC(=S)N1CCC(C(=O)c2ccc(F)cc2)CC1 : criterion met

Request: Can `O=C1c2ccccc2C(=O)N1c1ccc(Cc2ccncc2)cc1` be said to have solubility kinetic at or above 40 µg/mL?
Result: criterion met

Request: Can `COc1ccccc1OCCNC(=O)CCNC(=O)c1ccccc1Cl` be said to have solubility kinetic at or above 40 µg/mL?
Result: criterion met

Request: Can `COc1ccc(NC(=O)/C=C/c2cccc(Br)c2)cn1` be said to have solubility kinetic at or above 40 µg/mL?
Result: criterion not met

Request: Can `COc1ccc(CCNC(=O)Cc2ccsc2)cc1` be said to have solubility kinetic at or above 40 µg/mL?
Result: criterion met

Request: Can `CCN(CC)c1ccc(NC(=O)c2ccc3c(c2)OCO3)c(C)c1` be said to have solubility kinetic at or above 40 µg/mL?
Result: criterion not met

Request: Can `O=C(COC(=O)c1cc(=O)[nH]c2ccccc12)NC1CCCCC1` be said to have solubility kinetic at or above 40 µg/mL?
Result: criterion not met

Request: Can `O=C(Cn1nc(C(F)F)cc1C1CC1)N1CCCC1` be said to have solubility kinetic at or above 40 µg/mL?
Result: criterion met

Request: Can `Cc1cccc(C)c1OCCCCN1CCNCC1.O=C(O)C(=O)O` be said to have solubility kinetic at or above 40 µg/mL?
Result: criterion met

Request: Can CC1CCN(C(=O)CN2C(=O)C(=O)N(C)C2=O)c2ccccc2S1 (stereo not given) be said to have solubility kinetic at or above 40 µg/mL?
Result: criterion met

Request: Can `Brc1ccc(CN2CCCCCC2)cc1` be said to have solubility kinetic at or above 40 µg/mL?
Result: criterion not met

Request: Can CC(=O)NC(CC(=O)OCC(=O)c1cc(C)ccc1C)c1ccccc1 (stereo not given) be said to have solubility kinetic at or above 40 µg/mL?
Result: criterion met

Request: Can `O=C(Cc1ccccc1Cl)NC1(O)C(=O)c2ccccc2C1=O` be said to have solubility kinetic at or above 40 µg/mL?
Result: criterion met

Request: Can `CN1CCN(Cc2cc3c(cc2[N+](=O)[O-])OCO3)CC1` be said to have solubility kinetic at or above 40 µg/mL?
Result: criterion not met

Request: Can `C/C(=N\O)C(C)(C)Nc1ccc(Cl)cc1` be said to have solubility kinetic at or above 40 µg/mL?
Result: criterion not met

Request: Can `CSc1ccc(CN(C)CC(=O)NCCc2ccccc2)cc1` be said to have solubility kinetic at or above 40 µg/mL?
Result: criterion met

Request: Can Cc1occc1C(=O)N1CCCC(Nc2ccc(F)cc2)C1 (stereo not given) be said to have solubility kinetic at or above 40 µg/mL?
Result: criterion met

Request: Can `Fc1ccccc1CN1CCC(Cc2ccccc2)CC1` be said to have solubility kinetic at or above 40 µg/mL?
Result: criterion not met
